Numbers sourced from ChEMBL document CHEMBL3399963.

Target System: Fibroblast growth factor receptor 4 (Homo sapiens)
Sequence (P22455 whole entry): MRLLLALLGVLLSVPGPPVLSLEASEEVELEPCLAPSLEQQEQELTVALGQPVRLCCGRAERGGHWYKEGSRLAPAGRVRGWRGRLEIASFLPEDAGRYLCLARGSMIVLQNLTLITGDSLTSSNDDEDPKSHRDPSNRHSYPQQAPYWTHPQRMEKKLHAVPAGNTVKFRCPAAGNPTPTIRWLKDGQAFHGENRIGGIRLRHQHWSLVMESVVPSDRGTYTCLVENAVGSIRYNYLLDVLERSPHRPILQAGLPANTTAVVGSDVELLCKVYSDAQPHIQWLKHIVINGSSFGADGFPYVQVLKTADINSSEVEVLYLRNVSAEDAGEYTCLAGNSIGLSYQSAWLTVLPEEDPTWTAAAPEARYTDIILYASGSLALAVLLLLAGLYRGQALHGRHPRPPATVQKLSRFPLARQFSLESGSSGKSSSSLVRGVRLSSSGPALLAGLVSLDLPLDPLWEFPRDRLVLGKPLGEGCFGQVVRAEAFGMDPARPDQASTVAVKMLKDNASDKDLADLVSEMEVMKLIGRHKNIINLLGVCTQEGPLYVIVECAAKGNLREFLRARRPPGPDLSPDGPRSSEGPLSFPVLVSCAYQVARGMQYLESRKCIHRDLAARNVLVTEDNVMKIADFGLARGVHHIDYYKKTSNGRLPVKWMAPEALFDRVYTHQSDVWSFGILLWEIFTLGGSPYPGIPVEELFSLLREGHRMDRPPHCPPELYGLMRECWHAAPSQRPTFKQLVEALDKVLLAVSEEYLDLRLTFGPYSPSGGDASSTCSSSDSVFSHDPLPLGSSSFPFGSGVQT
Assay Procedure: Inhibition of FGFR4 (unknown origin) after 90 mins by TR-FRET assay
Quantity Measured: IC50

[[record]]
compound = "CC(=O)Nc1nc(O)c2nc(-c3c[nH]c4ccccc34)[nH]c2n1"
result = "> 20 µM"

[[record]]
compound = "CC(=O)Nc1nc(O)c2nc(-c3ccccc3)[nH]c2n1"
result = "> 20 µM"

[[record]]
compound = "CN1CCN(c2ccc(-c3nc4c(N5CCN(CC(=O)Nc6nccs6)CC5)c(Cl)cnc4[nH]3)cc2)CC1"
result = "0.13 µM"

[[record]]
compound = "CC(=O)Nc1nc(O)c2nc(-c3c[nH]c4cccc(Br)c34)[nH]c2n1"
result = "> 20 µM"

[[record]]
compound = "COc1cccc(-c2nc3c(O)nc(NC(C)=O)nc3[nH]2)c1OC"
result = "> 20 µM"


Lab note: need IC50 with Fibroblast growth factor receptor 4 (Homo sapiens) for entry CC(=O)Nc1nc(O)c2nc(-c3ccc(C)cc3C)[nH]c2n1 , please look it up.
> 20 µM

Also COc1ccccc1-c1nc2c(O)nc(N)nc2[nH]1 , if possible.
> 20 µM

Also CC(C)(C)NC(=O)Nc1nc2nc(N)ncc2cc1-c1c(Cl)cccc1Cl , if possible.
0.56 µM

Also Nc1nc(O)c2nc(-c3c[nH]c4ccccc34)[nH]c2n1 , if possible.
> 20 µM

Also Cc1ccc(-c2nc3c(O)nc(N)nc3[nH]2)c(C)c1 , if possible.
> 20 µM

Also Nc1nc(O)c2nc(-c3ccccc3)[nH]c2n1 , if possible.
> 20 µM

Also COc1ccccc1-c1nc2c(O)nc(NC(C)=O)nc2[nH]1 , if possible.
> 20 µM

----------
Observed IC50, system Fibroblast growth factor receptor 3 (Homo sapiens, UniProt P22607).

Completed entries (count: 2):
[[record]]
compound = "COc1ccccc1-c1nc2c(O)nc(NC(C)=O)nc2[nH]1"
quantity_measured = "IC50"
result = "> 20 µM"

[[record]]
compound = "Nc1nc(O)c2nc(-c3c[nH]c4ccccc34)[nH]c2n1"
quantity_measured = "IC50"
result = "> 20 µM"


# ---- query compound ----
What value of IC50 has been reported for the following compound? CC(C)(C)NC(=O)Nc1nc2nc(N)ncc2cc1-c1c(Cl)cccc1Cl
0.29 µM

----------
Target System: Fibroblast growth factor receptor 4 (Homo sapiens)
Assay Procedure: Inhibition of FGFR4 (unknown origin)
Quantity Measured: pIC50
As a rule, pIC50 stands for the negative log10 of the concentration, concentration in M.

Lab note: need pIC50 with Fibroblast growth factor receptor 4 (Homo sapiens) for entry CN1CCN(c2ccc(-c3nc4c(N5CCN(CC(=O)Nc6nccs6)CC5)c(Cl)cnc4[nH]3)cc2)CC1 , please look it up.
7.70
